# SYSTEM_NAME: recombinant SARS-CoV-2 Main protease (Mpro) (Severe acute respiratory syndrome coronavirus 2 (2019-nCoV) (SARS-CoV-2))
# ASSAY_REMARKS: Cov Mpro Biochemical IC50 Assay
# CONDITION_INFO: recombinant SARS-CoV-2 Mpro 7.5 nM, fluorogenic peptide substrate 40 μM; read-out: MPro IC50
Entries and their pIC50 values follow.
Hey, just a heads up that pIC50 is the negative log base 10 of the concentration in molar.

Item COc1cc(-c2cc3c(s2)c(=O)n(-c2cncc(Cl)c2C)c(=O)n3CCC#N)c(Cl)cc1F (single isomer, unassigned) [Example 1032] : provide pIC50 8.70

Input COc1cc(-c2cc3c(s2)c(=O)n(-c2cnccc2C)c(=O)n3CCC#N)c(Cl)cc1F (single isomer, unassigned) [Example 1030] , output reported pIC50. 8.35

# return recorded pIC50 for entry COc1cc(-c2cc3c(s2)c(=O)n(-c2cncc(Cl)c2C)c(=O)n3CCC#N)c(Cl)cc1F [Example 927] 8.15

Others:
Determine from records and report pIC50 for Cn1ncc2cncc(-n3c(=O)c4sc(-c5ccc(F)cc5Cl)cc4n(CCC#N)c3=O)c21 [Example 769] 8.07

Give me measured pIC50, please, for this compound: `COc1cc(-c2cc3c(s2)c(=O)n(-c2cncc(C4CC4)c2)c(=O)n3CCC#N)c(Cl)cc1F` 8.60

Supply recorded pIC50 for COc1cc(-c2cc3c(s2)c(=O)n(-c2cncc4ccccc24)c(=O)n3CC2(C#N)CC2)c(Cl)cc1F [Example 631] here. 7.90

###

# SYSTEM_NAME: recombinant SARS-CoV-2 Main protease (Mpro) (Severe acute respiratory syndrome coronavirus 2 (2019-nCoV) (SARS-CoV-2))
# ASSAY_REMARKS: Cov Mpro Biochemical IC50 Assay
# CONDITION_INFO: recombinant SARS-CoV-2 Mpro, fluorogenic peptide substrate; read-out: MPro IC50
Measured log10(IC50) of individual entries
Parameter value (number): base-10 log of IC50 in nM.

Kindly indicate its recorded log10(IC50). Item: `Cn1cc2ccc(-n3c(=O)n(-c4cncc5ccccc45)c(=O)c4sc(-c5ccccc5Cl)cc43)cc2n1` 1.93

Continuing:
Give the reported value of log10(IC50) for this record: `COc1ccc2cncc(-n3c(=O)[nH]c4cc(-c5ccccc5Cl)sc4c3=O)c2c1` 0.67

Annotate the compound `COc1ccc(Cl)c(-c2ccc3c(=O)n(-c4cncc5ccc(OC)cc45)c(=O)[nH]c3c2)c1` with its measured log10(IC50). 1.68

Entry `COc1cc(-c2cc3[nH]c(=O)n(-c4cncc5ccccc45)c(=O)c3s2)c(Cl)cc1C` needs its log10(IC50) filled in; supply it. 0.74

For the compound `O=c1[nH]c2nc(-c3ccccc3)ccc2c(=O)n1-c1cncc2ccccc12` , give its reported log10(IC50). 4.17

Indicate its recorded log10(IC50); the compound in question is `O=c1[nH]c2cc(-c3ccccc3Cl)sc2c(=O)n1-c1cncc2c1CCC2` 1.50

Indicate the recorded log10(IC50) value for this compound: `O=c1[nH]c2cc(-c3ccsc3Cl)sc2c(=O)n1-c1cncc2ccccc12` 1.51

###

# SYSTEM_NAME: recombinant SARS-CoV-2 Main protease (Mpro) (Severe acute respiratory syndrome coronavirus 2 (2019-nCoV) (SARS-CoV-2), UniProt P0DTD1)
# ASSAY_REMARKS: Cov Mpro Biochemical IC50 Assay
# CONDITION_INFO: recombinant SARS-CoV-2 Mpro, fluorogenic peptide substrate; read-out: MPro IC50
ENDPOINT: log10 of IC50 (log10 of the value in nM)
Note the log scale: values are log10 of IC50 expressed in nM.

Worked cases, answers included:
Provide one value: measured log10 of IC50 of `O=c1[nH]c2cc(-c3cncc4ccccc34)ccc2c(=O)n1-c1cncc2ccccc12` 3.51

Indicate the recorded log10 of IC50 value for this compound: `COc1cc(Cl)c(-c2ccc3c(=O)n(-c4cncc5ccccc45)c(=O)[nH]c3c2)cc1OC` 2.49

Specify reported log10 of IC50 for the compound shown: `O=c1[nH]c2cc(-c3ccccc3Cl)sc2c(=O)n1-c1cncc2sccc12` 0.67

Return log10 of IC50 (reported value) for this compound: `O=c1[nH]c2cc(-c3c(Cl)cccc3OCc3cscn3)ccc2c(=O)n1-c1cncc2ccccc12` 2.05

Given `Cc1c(-c2ccccc2Cl)sc2c1c(=O)n(-c1cncc3ccccc13)c(=O)n2CC1CCCC1` , respond with its log10 of IC50. 4.45

New cases:
# return recorded log10 of IC50 for input `CC(C)Oc1cc(F)ccc1-c1cc2[nH]c(=O)n(-c3cncc4ccccc34)c(=O)c2s1` 2.12

Give reported log10 of IC50 value for `Cn1cc(-c2cccc(Cl)c2-c2ccc3c(=O)n(-c4cncc5ccccc45)c(=O)[nH]c3c2)cn1` 1.98

Give log10 of IC50 for `COc1cc(F)c(Cl)c(-c2ccc3c(=O)n(-c4cncc5ccccc45)c(=O)[nH]c3c2)c1` 2.92

Using the record for `O=c1[nH]c2cc(-c3c(Cl)cccc3-c3ccncc3F)ccc2c(=O)n1-c1cncc2ccccc12` , state its measured log10 of IC50. 1.18

Please report the measured log10 of IC50 for `Cc1cc(-c2cccc(Cl)c2-c2cc3[nH]c(=O)n(-c4cncc5ccccc45)c(=O)c3s2)cnn1` 0.84

Answer with reported log10 of IC50 of `COc1ccc(C)c(-c2cc3[nH]c(=O)n(-c4cncc5ccccc45)c(=O)c3s2)c1` 0.86

Determine from records and report log10 of IC50 for `Cc1ncccc1-c1cccc(Cl)c1-c1ccc2c(=O)n(-c3cncc4ccccc34)c(=O)[nH]c2c1` 1.20

Report measured log10 of IC50; entry is `COCCOCCOc1c(C)cncc1-n1c(=O)[nH]c2cc(-c3ccccc3Cl)sc2c1=O` 1.03
